testProtocol: Pharmacokinetics in rat plasma
Type: in vivo, Wistar rats
testContext: Wistar, rat, plasma, po, 100 mg/kg, Tmax, FS-C: normal (blank) rats, oral FS 100 mg kg^−1, n = 6
readoutKind: Tmax (min)
Numbers only here, please. The scale is min.

*Q* Can you share its Tmax? I mean this molecule: O=C(/C=C/c1ccc(O)c(O)c1/C=C/c1ccc(O)c(O)c1)O[C@H](Cc1ccc(O)c(O)c1)C(=O)O [Salvianolic acid A]
*A* 37.8

*Q* Same lookup for O=C(/C=C/c1ccc(O)c(O)c1)O[C@H](Cc1ccc(O)c(O)c1)C(=O)O [Rosmarinic acid] , please.
*A* 23.4

*Q* Same lookup for O=C(/C=C/c1ccc(O)c2c1[C@H](C(=O)O)[C@@H](c1ccc(O)c(O)c1)O2)O[C@H](Cc1ccc(O)c(O)c1)C(=O)O [Lithospermic acid] , please.
*A* 18.6

*Q* Same lookup for O=C(O)/C=C/c1ccc(O)c(O)c1 [Caffeic acid] , please.
*A* 43.2

----------
testProtocol: Stability test of QC samples
Assay type: physicochemical, rat
testContext: Three freeze-thaw cycles; medium concentration QC sample in rat plasma
Form field: Stability, Accuracy (RE, %) (one value per entry).
Numbers only here, please. The scale is %.

A selection of reference data follows.
>>> measvalue("O=C(/C=C/c1ccc(O)c(O)c1)O[C@H](Cc1ccc(O)c(O)c1)C(=O)O")
"−0.56"
>>> measvalue("O=C(/C=C/c1ccc(O)c(O)c1/C=C/c1ccc(O)c(O)c1)O[C@H](Cc1ccc(O)c(O)c1)C(=O)O")
11.33
>>> measvalue("O=C(/C=C/c1ccc(O)c2oc(-c3ccc(O)c(O)c3)cc12)O[C@H](Cc1ccc(O)c(O)c1)C(=O)O")
7.92
>>> measvalue("O=C(O)/C=C/c1ccc(O)c(O)c1")
11.31

*Q* Can you share its Stability, Accuracy (RE, %)? I mean this compound: O=C(/C=C/c1ccc(O)c2c1[C@H](C(=O)O)[C@@H](c1ccc(O)c(O)c1)O2)O[C@H](Cc1ccc(O)c(O)c1)C(=O)O
*A* 9.01

*Q* Same lookup for O=C(O)[C@H](O)Cc1ccc(O)c(O)c1 , please.
*A* −10.44

*Q* Same lookup for C[C@@H]1O[C@@H](OC[C@H]2O[C@@H](Oc3c(-c4ccc(O)c(O)c4)oc4cc(O)cc(O)c4c3=O)[C@H](O)[C@@H](O)[C@@H]2O)[C@H](O)[C@H](O)[C@H]1O , please.
*A* −5.39

----------
testProtocol: Pharmacokinetics in rat plasma
Format: in vivo, Wistar rats
testContext: Wistar, rat, plasma, po, 100 mg/kg, AUC0-t, FS-C: normal (blank) rats, oral FS 100 mg kg^−1, n = 6
Form field: AUC(0-t) (one value per entry).
Please answer in the form of a number followed by its unit of measurement.

A selection of reference data follows.
>>> measvalue("O=C(/C=C/c1ccc(O)c(O)c1/C=C/c1ccc(O)c(O)c1)O[C@H](Cc1ccc(O)c(O)c1)C(=O)O")
"0.107 µg·h/mL"
>>> measvalue("O=C(/C=C/c1ccc(O)c2c1[C@H](C(=O)O)[C@@H](c1ccc(O)c(O)c1)O2)O[C@H](Cc1ccc(O)c(O)c1)C(=O)O")
"0.128 µg·h/mL"
>>> measvalue("O=C(O)/C=C/c1ccc(O)c(O)c1")
"0.0372 µg·h/mL"

Now consider a different compound.
*Q* Can you share its AUC(0-t)? I mean this compound: O=C(/C=C/c1ccc(O)c(O)c1)O[C@H](Cc1ccc(O)c(O)c1)C(=O)O
*A* 0.218 µg·h/mL

----------
testProtocol: Pharmacokinetics in rat plasma
Assay type: in vivo, Wistar rats
testContext: Wistar, rat, plasma, po, 100 mg/kg, MRT0-t, FT-C: normal (blank) rats, oral FT 100 mg kg^−1, n = 6
Form field: MRT last (one value per entry).
Numbers only here, please. The scale is h.

A selection of reference data follows.
>>> measvalue("C[C@@H]1O[C@@H](OC[C@H]2O[C@@H](Oc3c(-c4ccc(O)c(O)c4)oc4cc(O)cc(O)c4c3=O)[C@H](O)[C@@H](O)[C@@H]2O)[C@H](O)[C@H](O)[C@H]1O")
7.51
>>> measvalue("O=C(/C=C/c1ccc(O)c(O)c1/C=C/c1ccc(O)c(O)c1)O[C@H](Cc1ccc(O)c(O)c1)C(=O)O")
8.8
>>> measvalue("O=C(/C=C/c1ccc(O)c(O)c1)O[C@H](Cc1ccc(O)c(O)c1)C(=O)O")
7.95
>>> measvalue("O=C(/C=C/c1ccc(O)c2c1[C@H](C(=O)O)[C@@H](c1ccc(O)c(O)c1)O2)O[C@H](Cc1ccc(O)c(O)c1)C(=O)O")
8.67

Now consider a different compound.
*Q* Can you share its MRT last? I mean this compound: O=C(O)/C=C/c1ccc(O)c(O)c1
*A* 5.61

----------
testProtocol: Stability test of QC samples
Format: physicochemical, rat
testContext: Store at room temperature for 12 h; low concentration QC sample in rat plasma
readoutKind: Stability, Accuracy (RE, %)
Numbers only here, please. The scale is %.

>>> measvalue("C[C@@H]1O[C@@H](OC[C@H]2O[C@@H](Oc3c(-c4ccc(O)c(O)c4)oc4cc(O)cc(O)c4c3=O)[C@H](O)[C@@H](O)[C@@H]2O)[C@H](O)[C@H](O)[C@H]1O")
"−6.74"
>>> measvalue("O=C(/C=C/c1ccc(O)c2oc(-c3ccc(O)c(O)c3)cc12)O[C@H](Cc1ccc(O)c(O)c1)C(=O)O")
4.15
>>> measvalue("O=C(O)/C=C/c1ccc(O)c(O)c1")
"−2.45"
>>> measvalue("O=C(O)[C@H](O)Cc1ccc(O)c(O)c1")
"−2.61"
>>> measvalue("O=C(/C=C/c1ccc(O)c2c1[C@H](C(=O)O)[C@@H](c1ccc(O)c(O)c1)O2)O[C@H](Cc1ccc(O)c(O)c1)C(=O)O")
"−5.80"
>>> measvalue("O=C(/C=C/c1ccc(O)c(O)c1/C=C/c1ccc(O)c(O)c1)O[C@H](Cc1ccc(O)c(O)c1)C(=O)O")
"−1.96"

Now consider a different compound.
*Q* Can you share its Stability, Accuracy (RE, %)? I mean this compound: O=C(/C=C/c1ccc(O)c(O)c1)O[C@H](Cc1ccc(O)c(O)c1)C(=O)O
*A* −3.95

----------
testProtocol: Stability test of QC samples
Assay type: physicochemical, rat
testContext: Store at 4 °C for 24 h; low concentration QC sample in rat plasma
readoutKind: Stability, Accuracy (RE, %)
Numbers only here, please. The scale is %.

>>> measvalue("O=C(/C=C/c1ccc(O)c(O)c1/C=C/c1ccc(O)c(O)c1)O[C@H](Cc1ccc(O)c(O)c1)C(=O)O")
1.81

*Q* Can you share its Stability, Accuracy (RE, %)? I mean this compound: C[C@@H]1O[C@@H](OC[C@H]2O[C@@H](Oc3c(-c4ccc(O)c(O)c4)oc4cc(O)cc(O)c4c3=O)[C@H](O)[C@@H](O)[C@@H]2O)[C@H](O)[C@H](O)[C@H]1O
*A* 3.07

*Q* Same lookup for O=C(/C=C/c1ccc(O)c(O)c1)O[C@H](Cc1ccc(O)c(O)c1)C(=O)O , please.
*A* −6.18

*Q* Same lookup for O=C(O)/C=C/c1ccc(O)c(O)c1 , please.
*A* 6.27

*Q* Same lookup for O=C(/C=C/c1ccc(O)c2c1[C@H](C(=O)O)[C@@H](c1ccc(O)c(O)c1)O2)O[C@H](Cc1ccc(O)c(O)c1)C(=O)O , please.
*A* 6.82

*Q* Same lookup for O=C(/C=C/c1ccc(O)c2oc(-c3ccc(O)c(O)c3)cc12)O[C@H](Cc1ccc(O)c(O)c1)C(=O)O , please.
*A* −9.02

*Q* Same lookup for O=C(O)[C@H](O)Cc1ccc(O)c(O)c1 , please.
*A* −5.50

----------
Form field: CL/F (one value per entry).
testProtocol: Pharmacokinetics in rat plasma
Assay type: in vivo, Wistar rats
testContext: Wistar, rat, plasma, po, 100 mg/kg, CLz/F, FS-C: normal (blank) rats, oral FS 100 mg kg^−1, n = 6
Numbers only here, please. The scale is L/h/kg.

A selection of reference data follows.
>>> measvalue("O=C(O)/C=C/c1ccc(O)c(O)c1 [Caffeic acid]")
0.34
>>> measvalue("O=C(/C=C/c1ccc(O)c(O)c1/C=C/c1ccc(O)c(O)c1)O[C@H](Cc1ccc(O)c(O)c1)C(=O)O [Salvianolic acid A]")
4.49
>>> measvalue("O=C(/C=C/c1ccc(O)c2c1[C@H](C(=O)O)[C@@H](c1ccc(O)c(O)c1)O2)O[C@H](Cc1ccc(O)c(O)c1)C(=O)O [Lithospermic acid]")
8.98

*Q* Can you share its CL/F? I mean this compound: O=C(/C=C/c1ccc(O)c(O)c1)O[C@H](Cc1ccc(O)c(O)c1)C(=O)O [Rosmarinic acid]
*A* 123

The measured values listed here are drawn from paper PMC11108815.
